In this section we review reported pIC50 values for a set of compounds.
# tested system: PDE5A (Homo sapiens, UniProt O76074)
# Construct: they are full-length with N-terminal GST tag; GST (N); purchased BPS Biosciences 60050; host or cells: baculovirus infected Sf9 cells
# assay summary: PDE enzyme activity assay (HTRF cGMP), PDE5A
# Format: biochemical
# assay context: recombinant enzyme; read-out: PDE5A1 inhibition (IC50)
pIC50: −log10 of the molar value.

// below: answered compounds
CCCc1nn(C)c2c(=O)[nH]c(-c3cc(NC4CCN(c5ccc(C(=O)NO)cc5)CC4)ccc3OCC)nc12
6.00 to 8.00
CCCc1nn(C)c2c(=O)[nH]c(-c3cc(CCC(=O)NO)ccc3OCC)nc12
6.00 to 8.00

Value of measured pIC50 for the entry CC(c1nc2c(cnn2C2CCOCC2)c(=O)[nH]1)N1CC(Oc2ccc(-c3ccc(C(=O)NO)cc3)cc2)C1 (centres unmarked) : < 5.00
